Assay: Half life in brain homogenate
Assay type: ADME, tissue-based
Exercise: for every item that follows, state its recorded half-life.
A bare number is not enough; add the unit after it.

Req: Endpoint output: half-life of CN1C=CCC(C(=O)O[C@H]2CC[C@H]3[C@@H]4CCc5cc(O)ccc5[C@H]4CC[C@]23C)=C1 . Value?
Resp: 12.9 min

Req: Endpoint output: half-life of C#C[C@]1(OC(=O)C2=CN(C)C=CC2)CC[C@H]2[C@@H]3CCc4cc(O)ccc4[C@H]3CC[C@@]21C . Value?
Resp: 12.4 min

###

Exercise: for every item that follows, state its recorded half-life.
Test: Half life in whole rat blood
Format: ADME

Req: Endpoint output: half-life of C#C[C@]1(OC(=O)C2=CN(C)C=CC2)CC[C@H]2[C@@H]3CCc4cc(O)ccc4[C@H]3CC[C@@]21C . Value?
Resp: 49.9 min

Req: Endpoint output: half-life of CN1C=CCC(C(=O)O[C@H]2CC[C@H]3[C@@H]4CCc5cc(O)ccc5[C@H]4CC[C@]23C)=C1 . Value?
Resp: 39.6 min

###

Assay: Rate constant in liver homogenate
Format: ADME, tissue-based
Conditions: tissue homogenate
Exercise: for every item that follows, state its recorded k.
Field format: number, assumed min⁻¹, no unit text.

Req: Endpoint output: k of C#C[C@]1(OC(=O)C2=CN(C)C=CC2)CC[C@H]2[C@@H]3CCc4cc(O)ccc4[C@H]3CC[C@@]21C . Value?
Resp: 0.0227

Req: Endpoint output: k of CN1C=CCC(C(=O)O[C@H]2CC[C@H]3[C@@H]4CCc5cc(O)ccc5[C@H]4CC[C@]23C)=C1 . Value?
Resp: 0.0283

###

Exercise: for every item that follows, state its recorded k.
Organism: Rattus norvegicus
Experiment: Rate constant in whole rat blood
Format: ADME
Field format: number, assumed min⁻¹, no unit text.

Req: Endpoint output: k of CN1C=CCC(C(=O)O[C@H]2CC[C@H]3[C@@H]4CCc5cc(O)ccc5[C@H]4CC[C@]23C)=C1 . Value?
Resp: 0.0175

Req: Endpoint output: k of C#C[C@]1(OC(=O)C2=CN(C)C=CC2)CC[C@H]2[C@@H]3CCc4cc(O)ccc4[C@H]3CC[C@@]21C . Value?
Resp: 0.0139
